Every entry's value here was drawn from patent US10711006B2.

- run description: Oral pharmacokinetic experiment in SD rats
- Format: in vivo
- measurement conditions: rat, plasma, oral 10 mg/kg vs intravenous 2 mg/kg, mean n = 3
quantity: bioavailability (%)

molecule	reported measurement
C=CC(=O)N1CC[C@@H](n2nc(-c3ccc(Oc4ccccc4)nc3F)c3c(N)ncnc32)C1 [Compound 24a]	57.8

[A] C=CC(=O)N1CC[C@@H](n2nc(-c3ccc(Oc4cccc(F)c4F)nc3F)c3c(N)ncnc32)C1 [Compound 24e]
[B] C=CC(=O)N1CCC[C@@H](n2nc(-c3ccc(Oc4ccccc4)cc3)c3c(N)ncnc32)C1 [Ibrutinib, reference compound]
[C] C=CC(=O)N1CCC[C@@H](n2nc(-c3ccc(Oc4ccccc4)nc3)c3c(N)ncnc32)C1 [Compound 15a]
Problem: Rank entries according to their bioavailability, from the largest number down. API: response body holds the labels in the requested order.
Result: A, C, B
(A: 46.1%, C: 20.9%, B: 12.5%)

###

A set of compounds tested on BTK Kinase (Homo sapiens (Human), UniProt Q06187), with measured IC50:
quantity: IC50 (nM)

Examples with their reported IC50 follow.
compound	IC50 [nM]
C=CC(=O)N1CCC[C@@H](n2nc(-c3ccc(Oc4ccccc4)nc3)c3c(N)ncnc32)C1 [Compound 15a]	3.2
C=CC(=O)N1CCC[C@@H](n2nc(-c3ccc(Oc4ccc(C)cc4)nc3)c3c(N)ncnc32)C1 [Compound 15i]	6.5
C=CC(=O)N1CCC[C@@H](n2nc(-c3ccc(Oc4ccc(F)cc4)nc3)c3c(N)ncnc32)C1 [Compound 15b]	9.5
C=CC(=O)N1CCC[C@@H](n2nc(-c3ccc(Oc4cccc(F)c4)nc3)c3c(N)ncnc32)C1 [Compound 15c]	8.6
C=CC(=O)N1CC[C@@H](n2nc(-c3ccc(Oc4cccc(F)c4F)nc3)c3c(N)ncnc32)C1 [Compound 23d]	7.4

[P] C=CC(=O)N1CCC[C@@H](n2nc(-c3cnc(Oc4ccccc4)c(F)c3)c3c(N)ncnc32)C1 [Compound 16b]
[Q] C=CC(=O)N1CC[C@@H](n2nc(-c3ccc(Oc4ccccc4)nc3F)c3c(N)ncnc32)C1 [Compound 24a]
[R] C=CC(=O)N1CCC[C@@H](n2nc(-c3ccc(Oc4ccc(F)c(F)c4)nc3)c3c(N)ncnc32)C1 [Compound 15f]
[S] C=CC(=O)N1CC[C@@H](n2nc(-c3ccc(Oc4ccccc4)nc3)c3c(N)ncnc32)C1 [Compound 23a]
Problem: Order the entries by their reported IC50, beginning at the minimum. Return the labels ranked in the requested order, please.
Result: Q, S, P, R

###

- run description: Oral pharmacokinetic experiment in SD rats
- Assay type: in vivo
- measurement conditions: oral (intragastric) 10 mg/kg, mean n = 3
quantity: AUC0-C(ng/h/mL) (ng·h/mL)

compound	AUC0-C(ng/h/mL) [ng·h/mL]
C=CC(=O)N1CC[C@@H](n2nc(-c3ccc(Oc4cccc(F)c4F)nc3F)c3c(N)ncnc32)C1 [Compound 24e]	1620
C=CC(=O)N1CCC[C@@H](n2nc(-c3ccc(Oc4ccccc4)cc3)c3c(N)ncnc32)C1 [Ibrutinib, reference compound]	550

[A] C=CC(=O)N1CCC[C@@H](n2nc(-c3ccc(Oc4ccccc4)nc3)c3c(N)ncnc32)C1 [Compound 15a]
[B] C=CC(=O)N1CC[C@@H](n2nc(-c3ccc(Oc4ccccc4)nc3F)c3c(N)ncnc32)C1 [Compound 24a]
Problem: Given the entries A and B , determine which has the lower reported AUC0-C(ng/h/mL). Your answer should be the label of the entry you select.
Result: A
(A: 698 ng·h/mL, B: 2140 ng·h/mL)
